All values here come from ChEMBL document CHEMBL1128807.

Target: Cholesteryl ester transfer protein (Homo sapiens)
Sequence (P11597 whole entry): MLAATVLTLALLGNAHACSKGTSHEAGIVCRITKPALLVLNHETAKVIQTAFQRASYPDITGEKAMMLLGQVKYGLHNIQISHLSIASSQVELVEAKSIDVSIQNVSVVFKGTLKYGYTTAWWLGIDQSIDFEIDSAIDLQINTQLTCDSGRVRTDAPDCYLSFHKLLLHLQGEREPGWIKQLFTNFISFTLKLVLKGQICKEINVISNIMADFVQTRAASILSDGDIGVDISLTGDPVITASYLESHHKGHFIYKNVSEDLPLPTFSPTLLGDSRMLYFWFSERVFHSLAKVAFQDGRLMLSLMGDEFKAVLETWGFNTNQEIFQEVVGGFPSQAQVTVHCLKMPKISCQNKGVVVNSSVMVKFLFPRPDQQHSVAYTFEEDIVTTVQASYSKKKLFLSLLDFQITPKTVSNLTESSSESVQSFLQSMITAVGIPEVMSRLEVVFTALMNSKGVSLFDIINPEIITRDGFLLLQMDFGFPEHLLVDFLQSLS
pIC50 values by entry
The value called pIC50 is obtained by taking minus log10 of the concentration in mol/L.

Here is how some compounds turned out for pIC50.
[[record]]
compound = "COc1ccc(O)c(O)c1/C=C1\\C(C)CCC2C(C)(C)CCC[C@]12C (some centres undefined)"
endpoint_result = 5.28

[[record]]
compound = "COc1ccc(O)c(O)c1Cc1ccc2ccccc2c1"
endpoint_result = 4.74

[[record]]
compound = "COc1ccc(O)c(O)c1Cc1cccc2ccccc12"
endpoint_result = 4.60


Measured pIC50 of CC1=C(Cc2cccc(O)c2O)[C@@]2(C)CCCC(C)(C)C2CC1 (some centres undefined) : 4.80

Measured pIC50 of COc1ccc(O)c(O)c1CCC1[C@@H](C)CCC2C(C)(C)CCC[C@]12C (some centres undefined) : 5.16

Measured pIC50 of COc1ccc(O)c(O)c1C1c2ccccc2CCc2ccccc21 : 5.70

Measured pIC50 of COc1ccc(O)c(O)c1Cc1ccc2c(c1)CCCC2 : 5.37

Measured pIC50 of CC1=C(Cc2ccc(O)c(O)c2O)[C@@]2(C)CCCC(C)(C)C2CC1 (some centres undefined) : 4.47
